B1: glmS ribozyme (parent)
chain: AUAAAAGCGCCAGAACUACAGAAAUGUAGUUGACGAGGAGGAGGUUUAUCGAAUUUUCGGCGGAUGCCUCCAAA

Variants of: B1
Experiment: self-cleavage kobs at 160 uM GlcN6P; higher = faster cleavage; RNA array
Details: with glucosamine-6-phosphate
Variants at the floor of the assay were thinned out.
Reported self-cleavage kobs at 160 uM GlcN6P values for the following variants.

# variantString, self-cleavage kobs at 160 uM GlcN6P
data = [
    ("G13A G43C G66A", "< 1e-05 s⁻¹"),
    ("A14U G35C", "< 1e-05 s⁻¹"),
    ("C58A", "3.84e-05 s⁻¹"),
]

Summary for this variant, G13C A14U G32A : self-cleavage kobs at 160 uM GlcN6P is 0.000741 s⁻¹

Noted for G35U G60C : its self-cleavage kobs at 160 uM GlcN6P reads < 1e-05 s⁻¹

The recorded self-cleavage kobs at 160 uM GlcN6P for entry C8A G51U C61U equals < 1e-05 s⁻¹

self-cleavage kobs at 160 uM GlcN6P reported for this variant U56G G59C : < 1e-05 s⁻¹

// self-cleavage kobs at 160 uM GlcN6P lookup, variant = G32C C34A C61U C67U , result: < 1e-05 s⁻¹

The recorded self-cleavage kobs at 160 uM GlcN6P for entry A42C U47C equals < 1e-05 s⁻¹

The variant identified as A33C A64C C68U registered its self-cleavage kobs at 160 uM GlcN6P at < 1e-05 s⁻¹

Measured self-cleavage kobs at 160 uM GlcN6P, A15C C16A C67U : 4.39e-05 s⁻¹

Sure, the documented self-cleavage kobs at 160 uM GlcN6P for G40A C50U is < 1e-05 s⁻¹

Looking up U47C G66A , I found its self-cleavage kobs at 160 uM GlcN6P recorded as 0.00017 s⁻¹

C10G C50G has a reported self-cleavage kobs at 160 uM GlcN6P of 0.000187 s⁻¹

What the record says about A6U G9A U49C : self-cleavage kobs at 160 uM GlcN6P is < 1e-05 s⁻¹

Per the records, this variant ( G9C A53U ) has self-cleavage kobs at 160 uM GlcN6P equal to < 1e-05 s⁻¹

Data point: G60C A64U ; self-cleavage kobs at 160 uM GlcN6P = < 1e-05 s⁻¹
